Values compiled from paper PMC8294059.

molecular target: HLA-DRB1*1301 (Homo sapiens, UniProt P01903+P01911, A100E/A169T/K41T/L162R/M171V/P40S/Q125H/Q178H/Q39Y/Q99D/R42S/S66N/T262R/W38E/Y61H); assay: biochemical; format: binding; settings: binding inhibition assay; NB = non-binder (no dose-dependent inhibition); read-out: DRB1*1301 IC50
Sequence (P01903 26-254 limits assumed): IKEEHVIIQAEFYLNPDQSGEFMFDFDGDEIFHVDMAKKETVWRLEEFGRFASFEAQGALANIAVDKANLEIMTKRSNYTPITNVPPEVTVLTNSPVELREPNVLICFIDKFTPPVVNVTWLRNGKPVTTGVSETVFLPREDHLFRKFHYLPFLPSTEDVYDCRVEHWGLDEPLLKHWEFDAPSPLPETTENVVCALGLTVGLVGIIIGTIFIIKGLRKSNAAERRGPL
Sequence (P01911 30-266 W38E/Q39Y/P40S/K41T/R42S/Y61H/S66N/Q99D/A100E/Q125H/L162R/A169T/M171V/Q178H/T262R limits assumed): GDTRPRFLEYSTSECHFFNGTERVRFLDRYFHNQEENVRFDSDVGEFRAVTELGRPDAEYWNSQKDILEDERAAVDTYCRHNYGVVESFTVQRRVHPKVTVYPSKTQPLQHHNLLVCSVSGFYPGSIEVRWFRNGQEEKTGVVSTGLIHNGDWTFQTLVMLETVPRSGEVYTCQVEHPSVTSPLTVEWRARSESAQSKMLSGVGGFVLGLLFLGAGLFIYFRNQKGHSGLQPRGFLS
pIC50: −log10 of the molar value. Where a SMILES comes first, the peptide text is derived from it.
Measurement name: pIC50

- CC[C@H](C)[C@H](NC(=O)[C@H](Cc1ccc(O)cc1)NC(=O)[C@@H](NC(=O)[C@H](Cc1ccc(O)cc1)NC(=O)[C@H](CO)NC(=O)CNC(=O)[C@H](CCSC)NC(=O)[C@H](CCCCN)NC(=O)[C@H](CCCCN)NC(=O)[C@H](CC(N)=O)NC(=O)[C@H](CC(C)C)NC(=O)[C@H](CC(N)=O)NC(=O)[C@@H](NC(=O)[C@H](CC(C)C)NC(=O)[C@H](CC(C)C)NC(=O)[C@H](CC(C)C)NC(=O)[C@H](CCC(=O)O)NC(=O)[C@@H](N)CO)[C@@H](C)O)[C@@H](C)CC)C(N)=O [RH5_010B] (H-SELLLTNLNKKMGSYIYI-NH2): 5.03
